Provenance of the data: ChEMBL document CHEMBL6127124

target: Cytochrome P450 2C19 (Homo sapiens)
Sequence (P33261 whole entry): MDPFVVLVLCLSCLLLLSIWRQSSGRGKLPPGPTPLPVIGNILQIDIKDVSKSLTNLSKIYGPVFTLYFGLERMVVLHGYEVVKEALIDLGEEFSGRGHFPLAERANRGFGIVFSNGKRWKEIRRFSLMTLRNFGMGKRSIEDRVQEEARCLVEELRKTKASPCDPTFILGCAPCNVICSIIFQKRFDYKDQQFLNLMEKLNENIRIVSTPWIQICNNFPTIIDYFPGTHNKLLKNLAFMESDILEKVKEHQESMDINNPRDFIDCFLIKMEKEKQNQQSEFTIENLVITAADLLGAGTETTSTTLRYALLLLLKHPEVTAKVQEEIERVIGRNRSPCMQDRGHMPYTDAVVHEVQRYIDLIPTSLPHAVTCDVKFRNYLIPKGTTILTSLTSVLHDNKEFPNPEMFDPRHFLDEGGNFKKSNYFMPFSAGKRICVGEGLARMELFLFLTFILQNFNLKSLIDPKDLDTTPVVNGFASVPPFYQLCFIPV
Readout: pIC50
Give bare numbers, as −log10 of the molar value.

What value of measured pIC50 is listed for CC(C)(C)[C@@H]1Cc2c(nc3c(C(F)(F)F)cc(C4CC4)cn23)-c2[nH]c(=O)c(C(=O)O)cc21 ?
4.66

* * *

assay: Ratio of total drug concentration in liver to plasma in CD-1 mouse at 0.2 mg/kg, po measured for 12 hrs by LC-MS/MS analysis; assay type: ADME, organism-based; conditions: liver and plasma
Readout: Kp at 12 h
Give bare numbers.

See these solved cases before continuing.
COc1ccn2c3c(nc2c1OC(F)F)-c1[nH]c(=O)c(C(=O)O)cc1[C@H](C(C)(C)C)C3 = 22
COc1cc(OC(F)F)c2nc3c(n2c1)C[C@@H](C(C)(C)C)c1cc(C(=O)O)c(=O)[nH]c1-3 = 284
Cn1c2c(cc(C(=O)O)c1=O)[C@H](C(C)(C)C)Cc1c-2nc2c(C(F)(F)F)cc(Cl)cn12 = 24
CC(C)(C)[C@@H]1Cc2c(nc3c(C(F)(F)F)cc(C4CC4)cn23)-c2[nH]c(=O)c(C(=O)O)cc21 = 120

What value of measured Kp at 12 h is listed for CC(C)(C)[C@@H]1Cc2c(nc3c(OC(F)F)cc(F)cn23)-c2[nH]c(=O)c(C(=O)O)cc21 ?
176

* * *

assay: Plasma protein binding in mouse assessed as unbound fraction at 2 uM incubated for 6 hrs by equilibrium dialysis; assay type: ADME, cell-free
Readout: fraction unbound at 6 h, 2 µM
One number for each entry.

See these solved cases before continuing.
CC(C)(C)[C@@H]1Cc2c(nc3c(C(F)(F)F)cc(C4CC4)cn23)-c2[nH]c(=O)c(C(=O)O)cc21 = 0.01
COCCCOc1cc2c(nc1OC)-c1cc(=O)c(C(=O)O)cn1[C@H](C(C)C)C2 = 0.66

What value of measured fraction unbound at 6 h, 2 µM is listed for COc1cc(OC(F)F)c2nc3c(n2c1)C[C@@H](C(C)(C)C)c1cc(C(=O)O)c(=O)[nH]c1-3 ?
0.02

* * *

Record form. Attribute: CC50. Fill in for each entry.
experiment: Cytotoxicity in human HepG2.2.15 cells by Cell Titer-Glo assay; type: toxicity, cell-based, HepG2 2.2.15
Give bare numbers, in µM.

See these solved cases before continuing.
CC(C)(C)[C@@H]1Cc2c(nc3c(C(F)(F)F)cc(C4CC4)cn23)-c2[nH]c(=O)c(C(=O)O)cc21 = 48
CC(C)(C)[C@@H]1Cc2c(nc3c(OC(F)F)cccn23)-c2[nH]c(=O)c(C(=O)O)c(O)c21 = 36
COCCCOc1cc2c(nc1OC)-c1[nH]c(=O)c(C(=O)O)c(O)c1[C@H](C(C)(C)C)C2 = 26

What value of measured CC50 is listed for CC(C)(C)C1Cc2c(cc(OC(F)F)c3ncccc23)-c2[nH]c(=O)c(C(=O)O)c(O)c21 (configuration not stated) ?
48

* * *

Target protein (sequence): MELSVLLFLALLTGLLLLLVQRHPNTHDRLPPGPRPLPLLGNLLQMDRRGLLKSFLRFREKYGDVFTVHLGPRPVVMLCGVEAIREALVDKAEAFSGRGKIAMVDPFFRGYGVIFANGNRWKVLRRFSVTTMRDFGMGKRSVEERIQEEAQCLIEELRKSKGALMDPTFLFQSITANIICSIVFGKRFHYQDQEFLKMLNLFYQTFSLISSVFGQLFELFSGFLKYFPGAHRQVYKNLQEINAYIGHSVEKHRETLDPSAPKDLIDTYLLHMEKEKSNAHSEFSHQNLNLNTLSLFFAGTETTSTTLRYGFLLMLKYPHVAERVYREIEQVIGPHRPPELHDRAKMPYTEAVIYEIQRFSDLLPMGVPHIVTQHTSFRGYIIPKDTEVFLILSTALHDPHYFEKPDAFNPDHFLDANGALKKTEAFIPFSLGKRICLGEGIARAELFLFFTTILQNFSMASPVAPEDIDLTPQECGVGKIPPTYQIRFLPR
Readout: IC50 (µM)
Answers are plain numbers, in µM.

What value of measured IC50 is listed for COCCCOc1cc2c(nc1OC)-c1cc(=O)c(C(=O)O)cn1[C@H](C(C)C)C2 ?
21
